TEST SYSTEM: UniProt P14902
PROTOCOL TEXT: Determination of biochemical activity of IDO1 enzyme (absorbance at 320 nm)
REPORTED CONDITIONS: room temperature, 3 hours
Exercise: state measured IC50 for each of the compounds provided.

I'd like to know its IC50. The compound in question is N=C(Nc1nonc1/C(=N/O)Nc1ccc(F)c(Br)c1)NC1CCCC1 [Embodiment 146] > 1 µM

Continue with O=C(Nc1nonc1/C(=N/O)Nc1ccc(F)c(Br)c1)N1CCNCC1 [Embodiment 48] 0.1 to 1 µM

Continue with O=C(Nc1nonc1/C(=N/O)Nc1ccc(F)c(Cl)c1)NC1CCCCC1 [Embodiment 25] 0.1 to 1 µM

Continue with CS(=O)(=O)N1CCN(C(=O)Nc2nonc2/C(=N/O)Nc2ccc(F)cc2)CC1 [Embodiment 53] 0.1 to 1 µM

====

TEST SYSTEM: IDO1 enzyme in the Hela cell (Homo sapiens)
Construct: endogenous in cells; host or cells: HeLa cells stimulated with interferon γ (100 ng/ml)
Sequence (P14902 whole entry): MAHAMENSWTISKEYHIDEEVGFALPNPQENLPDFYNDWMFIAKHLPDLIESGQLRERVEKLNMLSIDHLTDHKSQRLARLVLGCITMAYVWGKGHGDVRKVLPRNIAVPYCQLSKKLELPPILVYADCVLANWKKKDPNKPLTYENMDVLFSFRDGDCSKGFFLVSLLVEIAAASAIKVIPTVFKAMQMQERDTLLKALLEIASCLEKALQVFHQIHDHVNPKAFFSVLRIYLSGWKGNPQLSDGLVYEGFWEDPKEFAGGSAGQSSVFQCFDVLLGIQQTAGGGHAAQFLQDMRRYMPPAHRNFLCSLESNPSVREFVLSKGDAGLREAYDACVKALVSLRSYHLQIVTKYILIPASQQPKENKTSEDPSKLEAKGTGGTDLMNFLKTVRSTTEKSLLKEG
PROTOCOL TEXT: Cell activity: interferon γ-stimulated Hela cells, absorbance of supernatant at 480 nm
Type: cell-based
REPORTED CONDITIONS: interferon γ 100 ng/ml, 72 hours
READOUT NAME: IC50

I'd like to know its IC50. The molecule in question is O=C(Nc1nocc1/C(=N/O)Nc1ccc(F)c(Br)c1)Nc1cccc2[nH]ccc12 0.1 to 1 µM

Continue with O=C(Nc1nocc1/C(=N/O)Nc1ccc(F)c(Br)c1)NC1CCNCC1 < 0.001 µM

Continue with O=C(Nc1nonc1/C(=N/O)Nc1ccc(F)c(Br)c1)NC1CCCC1 0.1 to 1 µM

Continue with O=C(Nc1nocc1/C(=N/O)Nc1ccc(F)c(Br)c1)NC1CCC(O)CC1 (stereo not shown) 0.1 to 1 µM

Continue with COc1ccc(NC(=O)Nc2cocc2/C(=N/O)Nc2ccc(F)c(Br)c2)cc1 0.1 to 1 µM

Continue with O=C(NCCO)Nc1nonc1/C(=N/O)Nc1ccc(F)c(Cl)c1 < 0.001 µM

Continue with COc1cccc(NC(=O)Nc2cocc2/C(=N/O)Nc2ccc(F)c(Br)c2)c1 > 1 µM

Continue with O/N=C(\Nc1ccc(F)c(Br)c1)c1cocc1NC(=S)NC1CCCCC1 0.1 to 1 µM

Continue with O=C(Nc1ccccc1)Nc1conc1/C(=N/O)Nc1ccc(F)c(Cl)c1 0.1 to 1 µM

Continue with O=C(Nc1ccc(F)cc1)Nc1nonc1/C(=N/O)Nc1ccc(F)c(Br)c1 > 1 µM

Continue with O=C(Nc1nonc1/C(=N/O)Nc1ccc(F)c(Br)c1)Nc1cccc2[nH]ccc12 0.1 to 1 µM

Continue with N=C(Nc1nonc1/C(=N/O)Nc1ccc(F)c(Br)c1)NC1CCC(O)CC1 (stereo not shown) < 0.001 µM

Continue with COc1ccc(NC(=S)Nc2nonc2/C(=N/O)Nc2ccc(F)c(Br)c2)c(F)c1 > 1 µM

Continue with O=C(Nc1cocc1/C(=N/O)Nc1ccc(F)c(Br)c1)NC1CC1 0.1 to 1 µM

Continue with CCCNC(=O)Nc1cocc1/C(=N/O)Nc1ccc(F)c(Br)c1 0.1 to 1 µM

Continue with COc1ccc(NC(=O)Nc2nocc2/C(=N/O)Nc2ccc(F)c(Cl)c2)cc1 0.1 to 1 µM

Continue with O=C(Nc1nonc1/C(=N/O)Nc1ccc(F)c(Br)c1)NC1CCCCC1 0.1 to 1 µM

Continue with O=C(Nc1nonc1/C(=N/O)Nc1ccc(F)c(Br)c1)NC1CCCCCC1 0.1 to 1 µM

Continue with N=C(Nc1ccccc1)Nc1conc1/C(=N/O)Nc1ccc(F)c(Cl)c1 0.1 to 1 µM

Continue with N=C(Nc1nocc1/C(=N/O)Nc1ccc(F)c(Br)c1)NC1CCCCC1 0.1 to 1 µM

Continue with O=C(Nc1ccncc1)Nc1nonc1/C(=N/O)Nc1ccc(F)c(Br)c1 0.1 to 1 µM

Continue with N=C(Nc1ccc(O)cc1)Nc1nonc1/C(=N/O)Nc1ccc(F)c(Br)c1 < 0.001 µM

Continue with O=C(Nc1cocc1/C(=N/O)Nc1ccc(F)c(Br)c1)NC1CCC(O)CC1 (stereo not shown) < 0.001 µM

Continue with CC(C)NC(=O)Nc1nocc1/C(=N/O)Nc1ccc(F)c(Br)c1 0.1 to 1 µM

Continue with O=C(Nc1nonc1/C(=N/O)Nc1ccc(F)c(Br)c1)NC1CCOCC1 < 0.001 µM

Continue with NC1CCC(NC(=O)Nc2conc2/C(=N/O)Nc2ccc(F)c(Br)c2)CC1 (stereo not shown) 0.1 to 1 µM

Continue with O/N=C(\Nc1ccc(F)c(Br)c1)c1nonc1NC(=S)Nc1ccccc1 0.1 to 1 µM

Continue with CS(=O)(=O)NCCNC(=O)Nc1cocc1/C(=N/O)Nc1ccc(F)c(Br)c1 0.1 to 1 µM

Continue with O=C(Nc1cocc1/C(=N/O)Nc1ccc(F)c(Br)c1)Nc1cccc2[nH]ccc12 0.1 to 1 µM

Continue with N=C(Nc1nonc1/C(=N/O)Nc1ccc(F)c(Br)c1)NC1CCC(N)CC1 (stereo not shown) 0.1 to 1 µM

Continue with O=C(Nc1conc1/C(=N/O)Nc1ccc(F)c(Br)c1)NC1CC1 > 1 µM

Continue with COc1cccc(NC(=O)Nc2conc2/C(=N/O)Nc2ccc(F)c(Br)c2)c1 0.1 to 1 µM

Continue with O=C(Nc1nonc1/C(=N/O)Nc1ccc(F)c(Br)c1)Nc1cccc2cc[nH]c12 0.1 to 1 µM

Continue with O=C(Nc1ccccc1)Nc1nonc1/C(=N/O)Nc1ccc(F)c(Br)c1 0.1 to 1 µM

These entries and their values trace back to patent US11014895B2.
